testTarget: Bcl-xL (Homo sapiens)
Sequence (Q07817 whole entry): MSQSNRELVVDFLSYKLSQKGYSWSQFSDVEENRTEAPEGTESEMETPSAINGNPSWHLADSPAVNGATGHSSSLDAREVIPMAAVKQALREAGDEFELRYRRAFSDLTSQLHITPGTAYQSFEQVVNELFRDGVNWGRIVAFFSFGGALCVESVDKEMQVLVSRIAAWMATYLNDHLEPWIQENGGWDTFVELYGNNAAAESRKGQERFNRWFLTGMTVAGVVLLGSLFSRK
assayExplanation: TR-FRET Bcl-xL binding assay (competition with probe F-Bak)
condition: without human serum, read-out: Bcl-xL Binding Ki
pKi: −log10 of the molar value.
measuredMetric: pKi

{"lineNotation": "CNCCN(C)c1cc2c(c(C(=O)Nc3nc4ccccc4s3)c1)CN(c1ccc(-c3cnn(CC45CC6(C)CC(C)(C4)CC(OCCOC)(C6)C5)c3C)c(C(=O)O)n1)CC2", "pKi": 10.85}
{"lineNotation": "Cc1c(-c2ccc(N3CCc4c(C#N)ccc(C(=O)Nc5nc6ccccc6s5)c4C3)nc2C(=O)O)cnn1CC12CC3(C)CC(C)(C1)CC(OCCN)(C3)C2", "pKi": 10.89}

1. Cc1c(-c2ccc(-c3ccc4cccc(C(=O)Nc5nc6ccccc6s5)c4c3)nc2C(=O)O)cnn1CC12CC3(C)CC(C)(C1)CC(OCCNCCCO)(C3)C2
2. Cc1c(-c2ccc(N3CCc4cccc(C(=O)Nc5nc6ccccc6s5)c4C3)nc2C(=O)O)cnn1CC12CC3(C)CC(C)(C1)CC(OCCNC1CCN(S(C)(=O)=O)CC1)(C3)C2
3. COCCNCCOC12CC3(C)CC(C)(CC(Cn4ncc(-c5ccc(N6CCc7c(OC)ccc(C(=O)Nc8nc9ccccc9s8)c7C6)nc5C(=O)O)c4C)(C3)C1)C2
Task: # ascending order, key=pKi Your answer should be the labels, listed in the requested order.
Result: 1, 2, 3
